test system: P. falciparum apicoplast DNA polymerase (Pf-apPOL) (Plasmodium falciparum)
Sequence (Q8ILY1 entry or part of it): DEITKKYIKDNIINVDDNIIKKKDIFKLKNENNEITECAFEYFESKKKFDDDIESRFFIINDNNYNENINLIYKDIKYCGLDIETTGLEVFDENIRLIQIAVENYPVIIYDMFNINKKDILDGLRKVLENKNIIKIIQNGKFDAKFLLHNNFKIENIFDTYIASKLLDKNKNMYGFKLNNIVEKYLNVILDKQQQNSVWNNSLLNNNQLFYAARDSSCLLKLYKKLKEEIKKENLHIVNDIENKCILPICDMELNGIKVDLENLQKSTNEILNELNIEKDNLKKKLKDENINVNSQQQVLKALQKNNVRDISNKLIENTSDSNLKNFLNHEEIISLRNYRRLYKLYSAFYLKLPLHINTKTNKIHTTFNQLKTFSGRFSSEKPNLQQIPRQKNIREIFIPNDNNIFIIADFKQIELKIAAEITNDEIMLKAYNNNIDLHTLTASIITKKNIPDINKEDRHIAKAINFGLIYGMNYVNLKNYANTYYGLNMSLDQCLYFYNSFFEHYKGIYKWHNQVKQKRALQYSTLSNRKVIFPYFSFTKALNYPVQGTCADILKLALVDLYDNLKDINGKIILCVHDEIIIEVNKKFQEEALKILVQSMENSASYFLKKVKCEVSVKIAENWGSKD
procedure text: Fluorescence-based high-throughput DNA polymerase assay (molecular beacon), primary screen and dose-response
Assay type: biochemical
run conditions: DRC-1; read at 180'; concentration 10
measurement label: % inhibition apPOL 180' 10 (%)
Numeric only. Scale: %

Look over these answered cases.
>>> df
                                   compound  quantity_unit  observed_measurement
0  COc1ccccc1CC(=O)N1CCc2c(nc3cc(-c4ccccc4Cl)[nH]n3c2=O)C1              %                     8
1  Cn1nc(-c2nc(-c3ccccc3)no2)c2c1CCN(C(=O)Cc1cccs1)C2              %                     9
2  Cc1cc2[nH]c(C(=O)Nc3ccc(F)cc3)c(CN3CCOCC3)c2s1              %                 4.226

# compound CC(=O)Nc1cc(C(=O)c2cccs2)nn(-c2ccc(Cl)cc2)c1=O ; its % inhibition apPOL 180' 10 = -1.249

# compound CC(=O)OCC1=C(C(=O)[O-])N2C(=O)[C@@H](NC(=O)Cc3cccs3)[C@H]2SC1.[Na+] ; its % inhibition apPOL 180' 10 = -4.869

# compound O=C1CSC2=NC3=C(CCc4ccccc43)C(c3cccs3)N12 (centres unmarked) ; its % inhibition apPOL 180' 10 = 9.04

# compound O=C(c1ccccc1)N1CCc2c(nc3cc(-c4ccccc4)[nH]n3c2=O)C1 ; its % inhibition apPOL 180' 10 = 22.4217

# compound Cc1nc(C)c2c(n1)N(CC1CCCCC1)C(=O)CC2 ; its % inhibition apPOL 180' 10 = 35.963

###

test system: bacteriophage T4 DNA polymerase (Enterobacteria phage T4, UniProt P04415)
Construct: made in house
Sequence (P04415 1-898): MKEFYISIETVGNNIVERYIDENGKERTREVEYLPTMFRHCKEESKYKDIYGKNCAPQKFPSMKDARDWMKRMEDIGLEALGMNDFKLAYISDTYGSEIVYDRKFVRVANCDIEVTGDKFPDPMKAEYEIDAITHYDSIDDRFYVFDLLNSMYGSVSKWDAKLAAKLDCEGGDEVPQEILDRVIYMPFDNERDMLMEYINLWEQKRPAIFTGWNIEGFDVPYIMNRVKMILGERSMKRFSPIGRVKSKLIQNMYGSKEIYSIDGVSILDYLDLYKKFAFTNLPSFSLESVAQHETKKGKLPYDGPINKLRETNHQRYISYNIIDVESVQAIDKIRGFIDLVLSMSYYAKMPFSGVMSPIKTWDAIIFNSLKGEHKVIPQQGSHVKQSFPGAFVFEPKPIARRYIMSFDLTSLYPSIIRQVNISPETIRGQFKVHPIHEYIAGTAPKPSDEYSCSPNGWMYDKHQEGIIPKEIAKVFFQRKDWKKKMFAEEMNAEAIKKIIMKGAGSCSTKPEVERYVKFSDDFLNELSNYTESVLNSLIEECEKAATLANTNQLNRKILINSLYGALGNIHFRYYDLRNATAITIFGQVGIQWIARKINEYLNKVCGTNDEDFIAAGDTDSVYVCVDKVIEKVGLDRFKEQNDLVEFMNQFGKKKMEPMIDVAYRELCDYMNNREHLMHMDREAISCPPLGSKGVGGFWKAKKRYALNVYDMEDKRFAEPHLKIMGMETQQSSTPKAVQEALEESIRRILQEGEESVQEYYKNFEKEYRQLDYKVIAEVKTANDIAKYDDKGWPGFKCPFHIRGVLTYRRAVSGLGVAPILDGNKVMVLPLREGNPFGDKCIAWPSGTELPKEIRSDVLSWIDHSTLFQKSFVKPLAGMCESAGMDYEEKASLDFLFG
procedure text: Counter-screen against bacteriophage T4 DNA polymerase
Format: biochemical
run conditions: DRC-2; read at 40'; concentration 40
measurement label: % inhibition T4 40' 40 (%)
Numeric only. Scale: %

Look over these answered cases.
>>> print(df.to_string())
                                   compound  observed_measurement
0  Cc1cc2[nH]c(C(=O)Nc3ccc(F)cc3)c(CN3CCOCC3)c2s1                    26
1   COc1ccc(/C=C/c2cc(C(=O)O)c3ccccc3n2)cc1                    31
2  CC(C)CC(C(=O)O)N1C(=O)C2C3C=CC(C2C1=O)C1C(=O)N(C(CC(C)C)C(=O)O)C(=O)C31 (centres unmarked)                    28
3       Cc1nc(C)c2c(n1)N(CC1CCCCC1)C(=O)CC2                    12

# compound O=C(CCc1csc(NC(=O)Nc2ccccc2)n1)Nc1nc2ccccc2s1 ; its % inhibition T4 40' 40 = 5

# compound N#Cc1c(O)nc(N2CCCCC2)nc1-c1ccc2c(c1)OCO2 ; its % inhibition T4 40' 40 = -9

# compound CC(=O)Nc1cc(C(=O)c2cccs2)nn(-c2ccc(Cl)cc2)c1=O ; its % inhibition T4 40' 40 = 4

# compound Cn1nc(-c2nnc(-c3ccccc3F)o2)c2c1CCN(C(=O)c1ccccc1Cl)C2 ; its % inhibition T4 40' 40 = 3.24

###

test system: P. falciparum apicoplast DNA polymerase (Pf-apPOL) (Plasmodium falciparum)
procedure text: Fluorescence-based high-throughput DNA polymerase assay (molecular beacon), primary screen and dose-response;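 on % inhibition ApPOL 90': test concentration in µM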
Format: biochemical
run conditions: DRC-2; 90'; concentration 5
Respond with class 1 for % inhibition ApPOL 90' values of 10% and above, class 0 for values below.

Here's what some known entries look like.
>>> df
                                   compound  answer_label
0     O=C(Nc1cccc(Cl)c1)Nc1nnc(-c2ccncc2)s1       class 1
1   O=C1Nc2ccc(I)cc2C1=Cc1cc(Br)c(O)c(Br)c1       class 1
2  Cc1cc(C)nc(Nc2nc(CC(=O)Nc3nc(-c4ccco4)cs3)cs2)n1       class 0
3  Nc1c(S(=O)(=O)O)cc(Nc2ccccc2)c2c1C(=O)c1ccccc1C2=O       class 1
4  Cc1cccc(-c2nnc3ccc(NS(=O)(=O)c4ccc(C)c(C)c4)nn23)c1       class 1

State whether the measured % inhibition ApPOL 90' reaches 10%, counting equality as reaching it, for Cc1ccccc1C(=O)N1CCc2c(nc3cc(-c4ccccc4)[nH]n3c2=O)C1
class 0

State whether the measured % inhibition ApPOL 90' reaches 10%, counting equality as reaching it, for O=C1C(=Cc2ccccc2O)Oc2ccc(O)cc21
class 0

###

test system: bacteriophage T4 DNA polymerase (Enterobacteria phage T4, UniProt P04415)
Construct: made in house
procedure text: Counter-screen against bacteriophage T4 DNA polymerase
Assay type: biochemical
run conditions: DRC-2; 90'; concentration 10
Reported % inhibition T4 90' values are given for each entry in this list.
Please append the unit to your numeric answer.

Look over these answered cases.
>>> df
                                   molecule                               test_system    measurement_label  observed_measurement
0  Cc1ccc2c(C(=O)NCCc3cccnc3)cc(NC(=O)C(C)C)cc2n1  bacteriophage T4 DNA polymerase (Enterobacteria phage T4, UniProt P04415)  % inhibition T4 90'                   28%
1  Cc1nc(/N=N/c2ccc(C(=O)[O-])cc2)c(COP(=O)([O-])[O-])c(C=O)c1O.[Na+].[Na+].[Na+]  bacteriophage T4 DNA polymerase (Enterobacteria phage T4, UniProt P04415)  % inhibition T4 90'                   -9%
2  CC(C)(C)OC(=O)COc1ccc2cc(-c3ccccc3)c(=O)oc2c1  bacteriophage T4 DNA polymerase (Enterobacteria phage T4, UniProt P04415)  % inhibition T4 90'                   10%
3  CC(NC(=O)Cc1cc(=O)[nH]c(SCc2cccc(Cl)c2)n1)c1ccccc1 (stereo not drawn)  bacteriophage T4 DNA polymerase (Enterobacteria phage T4, UniProt P04415)  % inhibition T4 90'                   18%
4  O=[N+]([O-])c1ccc(/C=C/c2ccc3ccccc3n2)o1  bacteriophage T4 DNA polymerase (Enterobacteria phage T4, UniProt P04415)  % inhibition T4 90'                   32%

# molecule COc1ccc(-c2n[nH]cc2Oc2ccc(Cl)cc2)c(O)c1 ; its % inhibition T4 90' = -26%

# molecule COc1cccc(Oc2c(C(F)(F)F)oc3cc(OC(=O)N(C)C)ccc3c2=O)c1 ; its % inhibition T4 90' = 7%

# molecule O=C(Cc1cc(=O)[nH]c(SCc2ccccc2)n1)Nc1ccc2c(c1)OCO2 ; its % inhibition T4 90' = 4%

# molecule CC(=O)c1cc2c(N)c(/C(N)=N/C#N)sc2nc1C ; its % inhibition T4 90' = -18%

# molecule COc1ccc(-c2cc3nc4c(c(=O)n3[nH]2)CCN(C(=O)CCc2ccccc2)C4)cc1 ; its % inhibition T4 90' = -25%

# molecule CC1(C)CC(=O)C2=C(C1)OC1=C(C(=O)CC(C)(C)C1)C2c1ccc(O)cc1 ; its % inhibition T4 90' = 17%

# molecule COc1cccc(C(=O)N2CCc3c(nc4cc(-c5ccccc5)[nH]n4c3=O)C2)c1OC ; its % inhibition T4 90' = -29%

# molecule Cc1ccc(NC(=O)Cn2ccc3c(=O)[nH]ccc32)cc1F [Molecule 48, O=C(Cn1ccc2c1cc[nH]c2=O)Nc1ccc(c(c1)F)C] ; its % inhibition T4 90' = -15%

# molecule Cc1ccc(-n2nnc(C(=O)O)c2-c2ccccn2)c(F)c1 ; its % inhibition T4 90' = 27%

# molecule O=C1C(=Cc2ccccc2O)Oc2ccc(O)cc21 ; its % inhibition T4 90' = 21%
